These data points were gathered from PubChem BioAssay.

Record form. Attribute: z-score. Fill in for each entry.
ASSAY_NAME: basal HepG2 mitochondrial membrane potential changes, profiling panel, cell-based, JC-1 fluorescence, 24 h, 100 nL compound (AID 1167); also: test concentration not given here
CONDITION_DETAILS: higher = more signal

Task: Using the record for O=C1C2C=CC(C(O)c3ccc(B(O)O)cc3)N(Nc3ccccc3)C2C(=O)N1c1ccccc1 (stereo not given) , state its measured z-score.
Result: -2.75

Task: Using the record for CS(=O)(=O)CCOC(=O)C1=CC(c2ccc(CO)cc2)=CC(C2CC2)N(Cc2cc3c(cc2Br)OCO3)C=C1C(=O)OCCS(C)(=O)=O (stereo not given) , state its measured z-score.
Result: 2.99

Task: Using the record for [N-]=[N+]=NCc1ccccc1C[C@@]1(C(=O)NCC(O)CO)N=C(c2ccc(OCCCO)cc2)O[C@@H]1c1ccccc1CN=[N+]=[N-] (stereo not given in full) , state its measured z-score.
Result: -0.382

Task: Using the record for O=C1C2C=CC(C(O)c3cccs3)N(Nc3ccccc3F)C2C(=O)N1c1ccccc1 (stereo not given) , state its measured z-score.
Result: -0.686

Task: Using the record for C=C[C@@H](COC(C)=O)N(Cc1ccccc1[N+](=O)[O-])S(=O)(=O)c1ccc(Br)cc1 , state its measured z-score.
Result: -0.464

Task: Using the record for CN(C)C(=O)[C@@]1(CCC(=O)OC(C)(C)C)N=C(c2ccc(OCCCO)cc2)O[C@H]1c1ccccc1 , state its measured z-score.
Result: 0.26

Task: Using the record for O=c1cccc(C=Cc2ccccc2)o1 , state its measured z-score.
Result: 0.053

Task: Using the record for COCCOC(=O)N1C(=O)[C@@]2(c3ccccc31)[C@H](c1ccc(O)cc1)N1[C@H](c3ccccc3)[C@H](c3ccccc3)OC(=O)[C@H]1[C@@H]2C(=O)N1CCc2cc(OC)c(OC)cc2C1 , state its measured z-score.
Result: 0.893

Task: Using the record for COc1ccc([Si](C)(C)[C@H]2[C@H](CC(=O)N(CCO)Cc3ccccc3)O[C@@]3(C(=O)N(Cc4cccc(N5CCC5=O)c4)c4ccccc43)[C@@H]2C)cc1 , state its measured z-score.
Result: 0.967

Task: Using the record for O=C1C[C@]2(c3ccc([N+](=O)[O-])cc3)C(=O)N(CC(F)(F)F)c3cc(CO)ccc3[C@H]2N1CC12CC3CC(CC(C3)C1)C2 , state its measured z-score.
Result: 0.91

Task: Using the record for O=C(CS)NCCCCCCNC(=O)[C@H]1C[C@H]2C(=O)N3CCC[C@H]3C(=O)N2[C@H]1c1cccc(OCCO)c1 , state its measured z-score.
Result: -0.971

Task: Using the record for N[C@@H](Cc1ccccc1)Cn1cc(-c2ccccc2)nn1 , state its measured z-score.
Result: 1.18

Task: Using the record for Cc1ccc([C@H]2C(C(=O)O)=C[C@@H](C)N2S(=O)(=O)c2ccc(C)cc2)cc1 , state its measured z-score.
Result: -1.15

Task: Using the record for COCC(=C=CC[C@@H](O)c1ccc(CO)o1)CCO , state its measured z-score.
Result: 0.281

Task: Using the record for C=CCOC(=O)[C@@H]1[C@H]2C(=O)O[C@H](c3ccccc3)[C@H](c3ccccc3)N2[C@H](c2ccc(OCCOC(=O)[C@@H]3C[C@@H]4C(=O)N[C@@H](Cc5ccccc5)C(=O)N4[C@@H]3c3cccc(OCCO)c3)cc2)[C@@]12C(=O)Nc1ccc(I)cc12 , state its measured z-score.
Result: -1.57
